Source of measurements: patent US10206907B2

efflux ratio at 1 h, 10 µM values by entry
Test protocol: Caco2 permeability (bi-directional)
Format: in vitro ADME, human
Particulars: human, pH 7.4; Caco-2, ratio of PappB>A/PappA>B
Experimental: Bi-directional Caco-2 assays were performed as described below. 2×10^5 cells/well were seeded in plating medium consisting of DMEM+GlutaMAXI+1% NEAA+10% FBS (FetalClone II)+1% Pen/Strep. The medium was changed every 2-3 days. […] Concentrations of compound in the samples were measured by high performance liquid-chromatography/mass spectroscopy (LC-MS/MS). The Efflux ratios, as an indication of active efflux from the apical cell surface, were calculated using the ratio of PappB>A/PappA>B. […]
Reported property: efflux ratio at 1 h, 10 µM

>>> endpoint_result("CC(=O)Nc1nc2cccc(-c3ccc(OCc4ccccc4)cc3)n2n1")
0.85
>>> endpoint_result("O=C(Nc1nc2cccc(-c3ccc(NCc4ccccc4)cc3)n2n1)C1CC1")
1.31
>>> endpoint_result("O=C(NCc1cccnc1)c1ccc(-c2cccc3nc(NC(=O)C4CC4)nn23)cc1")
68.8
>>> endpoint_result("O=C(Nc1nc2cccc(-c3ccc(CN4CCCC(F)C4)cc3)n2n1)C1CC1 (stereo not drawn)")
1.14
>>> endpoint_result("O=C(Cc1ccc(-c2cccc3nc(NC(=O)C4CC4)nn23)cc1)Nc1cccnc1")
104
>>> endpoint_result("CC(=O)N(Cc1ccc(C#N)nc1)c1ccc(-c2cccc3nc(NC(=O)C4CC4)nn23)cc1")
70.2
>>> endpoint_result("O=C(Nc1nc2cccc(-c3ccc(OCc4ccc(C(F)(F)F)nc4)cc3)n2n1)C1CC1")
1.5
>>> endpoint_result("O=C(Nc1nc2cccc(-c3ccc(C(=O)N4CCCCC4)cc3)n2n1)C1CC1")
2.97
>>> endpoint_result("O=C(Nc1nc2cccc(-c3ccc(C(=O)N4CCC(O)(Cc5ccccc5)CC4)cc3)n2n1)C1CC1")
11.5
